Assign GI50 to each entry below.
- System: SK-OV-3
- TEST METHOD NOTES: NCI tumour cell line growth inhibition, 48 h
Active and inactive are the calls of the source. Cut-off read from the data, not from the text of the source: active = GI50 up to about 1.1 µM and inactive = higher.

Use the examples below as a reference point.
SMILES STR	GI50
COC(=O)c1nc(-c2ccc3c(n2)C(=O)C(=N)C(OC)=C3O)c(N)c(-c2ccc(OC)c(OC)c2O)c1C	1.18 µM (inactive)
O=C(CN(C(=O)OC12CC3CC(CC(C3)C1)C2)C(=O)OC12CC3CC(CC(C3)C1)C2)Oc1ccc([N+](=O)[O-])cc1	> 100 µM (inactive)

Now consider the entry below.
If you can, please state the reported GI50 value of CCOC(=O)c1cn(CC)c2cc3c(cc2c1=O)SCS3 . > 100 µM (inactive)

====

- Tested on: HOP-92
- TEST METHOD NOTES: NCI tumour cell line growth inhibition, 48 h
Activity calls are given as the source filed them. Cut-off read from the data, not from the text of the source: active = GI50 up to about 1.1 µM and inactive = higher.
Kindly supply the reported GI50 values for the records listed here.

Field: example entries. Status: answers known.
COMPOUND	TARGET DESC	GI50
NC(=O)C(Nc1c(Cl)cccc1Cl)c1cc2cc(Br)ccc2nc1Cl (stereo not drawn)	HOP-92	37.7 µM (inactive)
O=C1CCc2ccccc2O1 [DIHYDROCOUMARIN]	HOP-92	> 100 µM (inactive)

// switching to the query compound
I'd like to know its GI50. The compound in question is NC(Cc1cccc([N+](=O)[O-])c1)C(=O)O (stereo not drawn) 61.5 µM (inactive)

====

- Tested on: K562
- TEST METHOD NOTES: NCI tumour cell line growth inhibition, 48 h
Active and inactive are the calls of the source. Cut-off read from the data, not from the text of the source: active = GI50 up to about 1.1 µM and inactive = higher.
Record form. Attribute: GI50. Fill in for each entry.

COMPOUND	MEASUREMENT KIND	RESULT
CC(C)C1=CC23CCC4C(C)(C(=O)O)CCCC4(C)C2CC1C1C(=O)N(CCCCCCN2C(=O)C4C5CC6C7(C)CCCC(C)(C(=O)O)C7CCC6(C=C5C(C)C)C4C2=O)C(=O)C13 (stereo not drawn)	GI50	16.6 µM (inactive)

# batch size: 3; output GI50 per entry
1. COC(=O)CCC(NC(=S)N/N=C(\C)c1cnc2ccccc2n1)C(=O)OC (stereo not drawn)
2. Cc1ccc(C(=O)N(C(C)C)C(C)C)cc1/N=N/N(C)C
3. O=C1C(S(=O)(=O)c2ccccc2)=C(CS(=O)(=O)c2ccccc2)[C@@H](OCc2ccccc2)[C@@H]1OCc1ccccc1

1. 10.1 µM (inactive)
2. 38.8 µM (inactive)
3. 14.4 µM (inactive)

Hey, can you go through the list below and give me GI50 for every item?
1. CN1CC=C(c2c(N)nc(N)[nH]c2=O)CC1
2. Cc1cc(Br)c(N2C3=C(CC4=C2CCCC4=O)C(=O)CCC3)c(Br)c1

> 100 µM (inactive)
13.2 µM (inactive)

List the reported GI50 of each compound below.
1. COc1cccc(C2c3cc4c(cc3OC(N3CCCC3)C2C)OCO4)c1 (stereo not drawn)
2. C=CCCn1nc(-c2ccccc2)oc1=O

2.69 µM (inactive)
> 100 µM (inactive)

====

- Test system: SR
- TEST METHOD NOTES: NCI tumour cell line growth inhibition, 48 h
Activity calls are given as the source filed them. Rule as the data show it: active = GI50 up to about 1.1 µM and inactive = higher.
One label from this list, please: TRUE for active, FALSE for inactive

COMPOUND	TARGET DESC	LABEL CLASS
O=c1c2cc(I)ccc2nc(-c2cccs2)n1/N=C/c1ccccc1	SR	FALSE
CCCc1cc(-c2ccc(-c3cc(CCC)c(C=O)[nH]3)s2)[nH]c1C=O	SR	FALSE
COc1ccc(C(=O)Oc2c(C#N)sc3c2c(=O)n(-c2ccccc2)c(=S)n3-c2ccccc2)cc1	SR	TRUE
CCOC(=O)N1Cc2ccoc2C1	SR	FALSE
CC(=O)On1c(-c2ccccc2-c2nc3ccccc3n2OC(C)=O)nc2ccccc21	SR	FALSE

Record lookup: outcome of this test for O=C1Nc2ccccc2SC1=C(C(=O)c1ccccc1)C(=O)c1ccccc1 ? FALSE

Moving on to CC1=NOC(=O)/C1=C/c1ccc2c(c1)OCO2 FALSE

Lookup CCOC(CNCCC(=O)OC)OCC FALSE

C/C(=N/CC(=O)O)c1ccccc1 ? FALSE

What would you report for O=C(O)Cn1ccnc1[N+](=O)[O-] ? FALSE

Queued: C[C@H](CCC(=O)O)[C@H]1CC[C@H]2[C@@H]3[C@H](O)C[C@@H]4C[C@H](O)CC[C@]4(C)[C@H]3C[C@H](O)[C@]12C FALSE

Consider next the compound N#CN1CCC2CC(=O)CCC2C1 (stereo not given) in the same way. FALSE

Also, C[C@]12CC[C@H]3[C@@H](CCC4=C[C@@H](OC5OCC(OC6OC(CO)C(O)C(O)C6O)C(O)C5O)CC[C@@]43C=O)[C@@]1(O)CCC2C1=CC(=O)OC1 (stereo not given in full) please. TRUE

Same lookup for CC(=O)Nc1c(C)cc2c(nc3n2CCC3OC(C)=O)c1[N+](=O)[O-] (stereo not given) , please. FALSE

Also NC(=O)C(=O)c1ncn(Cc2ccccc2)c1N ? FALSE

====

- System: U-251
- TEST METHOD NOTES: NCI tumour cell line growth inhibition, 48 h
Calls of active or inactive are those of the source. Rule as the data show it: active = GI50 up to about 1.1 µM and inactive = higher.
Kindly state GI50 for each of the entries shown.

Solved entries (count: 3):
COMPOUND	GI50
N#CSC#Cc1ccc(C#CSC#N)cc1	21.5 µM (inactive)
C=CCCC(=O)CC(=O)OCc1ccccc1	> 100 µM (inactive)
CCC1CN2CCC3(c4ccccc4)CC(C(=O)OC)=CC1C23 (centres undefined)	16.3 µM (inactive)

# input compound: COC(=O)c1cc(C#N)[nH]c1-c1cc(Br)cs1 ; wanted: its GI50 13.3 µM (inactive)

====

- Test system: OVCAR-3
- TEST METHOD NOTES: NCI tumour cell line growth inhibition, 48 h
The source made the active and inactive calls. Cut-off read from the data, not from the text of the source: active = GI50 up to about 1.1 µM and inactive = higher.
Mark one answer only. Choices: class 1 = active, class 0 = inactive

The following molecules have reported results that may help.
MOLECULE	LABEL CLASS
CCCCCC(=O)OCC1(CO)C/C(=C\CC(C(C)C)C(C)C)C(=O)O1 (centres undefined)	class 0
COc1ccc(CC2Cc3ccccc3CCN2)cc1OC (centres undefined)	class 0
O=[N+]([O-])c1cccc(C2=NOC3C4CCC(C4)C23)c1 (centres undefined)	class 0

Now consider the entry below.
Recorded test outcome, item CC(=O)OCCOCCN1CCN(C2=C(Cl)C(=O)c3c(O)ccc(O)c3C2=O)CC1 class 1

====

- Test system: OVCAR-4
- TEST METHOD NOTES: NCI tumour cell line growth inhibition, 48 h
The source made the active and inactive calls. No stated cut-off is given here; in the data, active = GI50 up to about 1.1 µM and inactive = higher.
Thanks in advance; please answer with one of these: active, inactive

Use these answered entries as a reference point.
COMPOUND	LABEL CLASS
COC1C(O)C(C)OC(O[C@@H]2C[C@H]3CC[C@@H]4[C@H](CC[C@]5(C)[C@@H](C6=CC(=O)OC6)CC[C@]45O)[C@@]3(C)[C@H](O)C2)C1O (some centres not stated)	active
CC(C)(C)OC(=O)N1CCCC1C(=O)NC(c1ccccc1)c1ccccc1 (configuration not stated)	inactive
NC(=O)Cc1nc2c(N)ncnc2n1C1OC(CO)C(O)C1O (configuration not stated)	inactive

Call for entry O=C(O)CSc1ccc2nc3ccccc3c(O)c2c1 : inactive

One more compound: CN/N=C(/Cc1occc(=O)c1O)C(=O)Nc1ccccc1C inactive

For O=C(Cc1ccccc1)N/N=C(\C1=Nc2ccc([N+](=O)[O-])cc2NC1O)C(O)c1ccc([N+](=O)[O-])cc1 (configuration not stated) then? inactive

Then what about the compound NNC(=O)/C(NC(=O)c1ccccc1)=C(\N)c1cccc([N+](=O)[O-])c1 ? inactive

====

Task for the reader: assign each of the following compounds its reported GI50.
- System: NCI-H226
- TEST METHOD NOTES: NCI tumour cell line growth inhibition, 48 h
Active and inactive are the calls of the source. Rule as the data show it: active = GI50 up to about 1.1 µM and inactive = higher.

COMPOUND	GI50
CC1(C)C(C(=O)OC(C#N)c2cccc(OCC(=O)OCc3ccccc3)c2)C1(C)C (stereo not drawn)	> 100 µM (inactive)

For each of the compounds below, state GI50.
1. CC(C)(C)OC(=O)N1CCC23CCCC2C(=O)CC=C13 (stereo not drawn)
2. Clc1sc(Cl)c2c1[C@H](Cl)C[C@@H]2Cl

["> 100 µM (inactive)", "19.8 µM (inactive)"]

Sourced from ChEMBL document CHEMBL1201862
